Just for reference, patent US8765972B2 is where these values come from.

DC50 for assorted compounds
Biological target: UniProt:P09874
Sequence (P09874 whole entry): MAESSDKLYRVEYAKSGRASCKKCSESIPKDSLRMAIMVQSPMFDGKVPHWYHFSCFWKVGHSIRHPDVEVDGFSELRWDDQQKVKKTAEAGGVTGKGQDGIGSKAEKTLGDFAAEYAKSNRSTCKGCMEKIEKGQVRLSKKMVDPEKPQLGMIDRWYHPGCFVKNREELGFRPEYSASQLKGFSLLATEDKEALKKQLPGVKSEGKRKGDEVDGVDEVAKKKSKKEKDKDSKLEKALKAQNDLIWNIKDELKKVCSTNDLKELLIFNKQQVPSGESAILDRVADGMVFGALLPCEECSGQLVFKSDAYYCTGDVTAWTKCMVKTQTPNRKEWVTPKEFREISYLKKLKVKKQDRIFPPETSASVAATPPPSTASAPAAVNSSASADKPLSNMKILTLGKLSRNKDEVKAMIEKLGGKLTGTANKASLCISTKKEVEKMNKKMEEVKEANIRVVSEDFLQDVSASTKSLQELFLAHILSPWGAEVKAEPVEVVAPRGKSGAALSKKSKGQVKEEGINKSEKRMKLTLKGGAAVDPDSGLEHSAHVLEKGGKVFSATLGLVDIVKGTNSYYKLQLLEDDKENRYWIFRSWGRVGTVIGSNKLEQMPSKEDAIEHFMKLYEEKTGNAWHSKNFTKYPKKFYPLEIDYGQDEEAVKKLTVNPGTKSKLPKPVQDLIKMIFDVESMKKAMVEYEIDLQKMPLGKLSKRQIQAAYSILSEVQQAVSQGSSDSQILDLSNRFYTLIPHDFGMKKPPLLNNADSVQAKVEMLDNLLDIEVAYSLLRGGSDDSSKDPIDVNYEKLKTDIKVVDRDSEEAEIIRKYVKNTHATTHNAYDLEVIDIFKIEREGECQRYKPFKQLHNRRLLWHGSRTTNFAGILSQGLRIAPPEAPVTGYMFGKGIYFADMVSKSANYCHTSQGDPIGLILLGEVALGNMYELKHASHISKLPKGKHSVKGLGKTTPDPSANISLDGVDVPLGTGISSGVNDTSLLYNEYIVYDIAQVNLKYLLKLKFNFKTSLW
Details: read-out: PARP-1 (DC50); probe compound P1

{"COMPOUND": "CC1c2cccc(C(N)=O)c2C(=O)N1C1CCN(Cc2cn(C(C)C)c3ccccc23)CC1 (centres unmarked)", "SYSTEM_UNDER_TEST": "UniProt:P09874", "DC50": "440 nM"}
{"COMPOUND": "CC1c2cccc(C(N)=O)c2C(=O)N1C1CCN(Cc2ccc3[nH]ccc3c2)CC1 (centres unmarked)", "SYSTEM_UNDER_TEST": "UniProt:P09874", "DC50": "< 250 nM"}
{"COMPOUND": "CC1c2cccc(C(N)=O)c2C(=O)N1C1CCN(Cc2ccc[nH]2)CC1 (centres unmarked)", "SYSTEM_UNDER_TEST": "UniProt:P09874", "DC50": "< 250 nM"}
{"COMPOUND": "CC1c2cccc(C(N)=O)c2C(=O)N1c1ccc(N2CCCCC2)cc1 (centres unmarked)", "SYSTEM_UNDER_TEST": "UniProt:P09874", "DC50": "< 250 nM"}
{"COMPOUND": "CC1c2cccc(C(N)=O)c2C(=O)N1C1CCN(C2CCC2)CC1 (centres unmarked)", "SYSTEM_UNDER_TEST": "UniProt:P09874", "DC50": "< 250 nM"}
